Tested on: W3-BTJA strain
Assay: O-succinylhomoserine production of feed back resistant metA in W3-BTJA strain, Erlenmeyer flask culture
Format: cell-based, E. coli
Conditions: metA plasmid in W3-BTJA strain; flask culture 64 hours, HPLC; wild type = 100%
REPORTED_METRIC: O-succinylhomoserine production (%)

{"MOLECULE": "#32: feed-back resistant metA 32 gene product, amino acid sequence SEQ. ID. NO: 18 (protein, listed as Escherichia coli) MPIRVPDELPAVNFLREENVFVMTTSRASGQEIRPLKVLILNLMPKKIETENQFLRLLSNSPLQVDIQLLRIDSRESRNTPAEHLNNFYCNFEDIQDQNFDGLIVTGAPLGLVEFNDVAYWPQIKQVLEWSKDHVTSTLFVCWAVQAALNILYGIPKQTRTEKLSGVYEHHILHPHALLTRGFDDSFLAPHSRYADFPAALIRDYTDLEILAETEEGDAYLFASKDKRIAFVTGHPEYDAQTLAQEFFRDVEAGLDPDVPYNYFPHNDPQNTPRASWRSHGNLLFTNWLHYYVYQITPYDLRHMNPTLD", "REPORTED_METRIC": "O-succinylhomoserine production (%)", "VALUE_OBSERVED": "396%"}
{"MOLECULE": "#11: feed-back resistant metA 11 gene product, amino acid sequence SEQ. ID. NO: 16 (protein, listed as Escherichia coli) MPIRVPDELPAVNFLREENVFVMSTSRASGQEIRPLKVLILNLMPKKIETENQFLRLLSNSPLQVDIQLLRIDSRESRNTPAEHLNNFYCNFEDIQDQNFDGLIVTGAPLGLVEFNDVAYWPQIKQVLEWSKDHVTSTLFVCWAVQAALNILYGIPKQTRTEKLSGVYEHHILHPHALLTRGFDDSFLAPHSRYADFPAALIRDYTDLEILAETEEGDAYLFASKDKRIAFVTGHPEYDAQTLAQEFFRDVEAGLDPDVPYNYFPHNDPQNTPRESWRSHGNLLFTNWLNYYVYQIAPYDLRHMYPTLD", "REPORTED_METRIC": "O-succinylhomoserine production (%)", "VALUE_OBSERVED": "425%"}
{"MOLECULE": "#41: feed-back resistant metA 41 gene product, amino acid sequence SEQ. ID. NO: 22 (protein, listed as Escherichia coli) MPIRVPDELPAVNFLREENVFVMTTSRASGQEIRPLKVLILNLMPKKIETENQFLRLLSNSPLQVDIQLLRIDSRESRSTPAEHLNNFYCNFEDIQDQNFDGLIVTGAPLGLVEFNDVAYWPQIKQVLEWSKDHVTSTLIVCWAVQAALNILYGIPKQTRTEKLSGVYEHHILHPHALLTRGFDDSFLAPHSRYADFPAALIRDYTDLEILAETEEGDAYLFASKDKRIAFVTGHPEYDAQTLAQEFFRDVEAGLDPDVPYNYFPHNDPQNTPRASWRSHGNLLFTNWLNNYVYQITPYDLRHLNPTLD", "REPORTED_METRIC": "O-succinylhomoserine production (%)", "VALUE_OBSERVED": "389%"}
{"MOLECULE": "#10: feed-back resistant metA 10 gene product, amino acid sequence SEQ. ID. NO: 14 (protein, listed as Escherichia coli) MPIRVPDELPAVNFLREENVFVMTTSRASGQEIRPLKVLILNLMPKKIETENQFLRLLSNSPLQVDIQLLRIDSRESRNTPAEHLNNFYCNFEDIQDQNFDGLIVTGAPLGLVEFNDVAYWPQIKQVLEWSKDHVTSTLFVCWAVQAALNILYGIPKQTRTEQLSGVYEHHILHPHALLTRGFDDSFLAPHSRYADFPAALIRDYTDLEILAETEEGDAYLLASKDKRIAFVTGHPEYDAQTLAQEFFRDVEAGLDPDVPYNYFPHNDPQNTPRASWRSHGNLLFTNWLNYYVYRITPYDLRHMNPTLD", "REPORTED_METRIC": "O-succinylhomoserine production (%)", "VALUE_OBSERVED": "392%"}
